system: Plasmodium berghei; experiment: Luciferase/luciferin-expressing antifolate-resistant parasites were used to infect a culture of HepG2 cells that were pre-incubated with compounds. Infected hepatocytes emit light due to the luciferase reaction. Assay results are presented as the percent inhibition of light emission compared to control. […]; type: functional; conditions: sporozoite, HEPG2TOX_HILL_SLOPE 0.706, HEPG2TOX_R_SQUARED 0.847, PBLUC_HILL_SLOPE 1.15, PBLUC_R_SQUARED 0.722, read-out: LUCIFERASE INFECTION ASSAY - IC50
measurementType: IC50 (nM)

1. c1cncc(-c2cnc3ccc(-c4ccoc4)nn23)c1 | 1630
